tested system: purified recombinant human PKD1 (Homo sapiens, UniProt Q15139)
Sequence (Q15139 whole entry): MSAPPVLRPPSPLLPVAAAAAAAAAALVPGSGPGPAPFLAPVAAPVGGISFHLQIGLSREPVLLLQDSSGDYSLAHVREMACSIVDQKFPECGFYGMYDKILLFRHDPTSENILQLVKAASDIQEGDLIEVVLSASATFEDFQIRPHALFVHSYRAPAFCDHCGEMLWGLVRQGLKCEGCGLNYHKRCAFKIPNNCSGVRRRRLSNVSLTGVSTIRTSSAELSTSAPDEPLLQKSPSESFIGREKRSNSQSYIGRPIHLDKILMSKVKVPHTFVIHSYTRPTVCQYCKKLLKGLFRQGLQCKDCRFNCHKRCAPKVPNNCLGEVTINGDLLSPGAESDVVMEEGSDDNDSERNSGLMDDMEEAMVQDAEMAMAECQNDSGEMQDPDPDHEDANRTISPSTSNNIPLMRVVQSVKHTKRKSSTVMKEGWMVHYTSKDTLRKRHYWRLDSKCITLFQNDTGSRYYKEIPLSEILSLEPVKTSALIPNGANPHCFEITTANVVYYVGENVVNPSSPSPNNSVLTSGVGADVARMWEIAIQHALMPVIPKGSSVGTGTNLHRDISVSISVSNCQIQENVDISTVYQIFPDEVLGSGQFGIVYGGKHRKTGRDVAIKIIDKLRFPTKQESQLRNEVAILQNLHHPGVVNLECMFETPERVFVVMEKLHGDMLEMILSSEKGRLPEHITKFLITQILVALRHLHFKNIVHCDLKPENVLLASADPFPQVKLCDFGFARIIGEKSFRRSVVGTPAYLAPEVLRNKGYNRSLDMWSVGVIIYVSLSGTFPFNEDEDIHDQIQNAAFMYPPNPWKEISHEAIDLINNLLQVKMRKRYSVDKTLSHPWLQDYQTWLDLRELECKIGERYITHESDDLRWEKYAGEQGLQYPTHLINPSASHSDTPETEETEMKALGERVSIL
test method notes: radiometric PKD kinase activity assay
Assay type: biochemical
experimental context: radiometric kinase activity assay, in vitro; read-out: IC50 PKD1
// IC50 lookup, one value per entry

[
  {
    "compound structure": "C=CCOc1ccc2oc3c(c2c1)CCCNC3=O",
    "IC50 [nM]": 123
  },
  {
    "compound structure": "O=C1NCCSc2c1sc1ccc(O)c(I)c21",
    "IC50 [nM]": 114
  },
  {
    "compound structure": "O=C1NCCSc2c1sc1ccc(O)cc21",
    "IC50 [nM]": 28.3
  }
]
